Recorded values, source patent US20150368338A1.

Quick reference for Kd among some binders
Target: T1, IFN-αC (human, UniProt P01566 24-189)
T1 construct: Recombinant, HEK293; also called IFN-α10
Assay: ProteOn SPR, cell supernatant;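 note: each binding measurement used just a single antigen concentration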
Numeric only. Scale: nM

Answered examples (2):
BINDER	Kd (nM)
IFWM3388 (antibody, IgG1, V domains shown, mAb; IgG1/kappa said of the parent and of selected mAbs; also called IFWB3123) VH: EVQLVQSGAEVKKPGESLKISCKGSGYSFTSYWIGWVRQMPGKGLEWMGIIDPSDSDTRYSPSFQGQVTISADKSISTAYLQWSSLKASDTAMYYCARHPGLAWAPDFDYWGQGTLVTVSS VL: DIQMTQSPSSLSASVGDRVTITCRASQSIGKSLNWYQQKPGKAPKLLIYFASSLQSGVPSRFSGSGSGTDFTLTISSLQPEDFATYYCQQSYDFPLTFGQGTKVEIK	0.03
IFWM3415 (antibody, IgG1, V domains shown, mAb; IgG1/kappa said of the parent and of selected mAbs; also called IFWB3150) VH: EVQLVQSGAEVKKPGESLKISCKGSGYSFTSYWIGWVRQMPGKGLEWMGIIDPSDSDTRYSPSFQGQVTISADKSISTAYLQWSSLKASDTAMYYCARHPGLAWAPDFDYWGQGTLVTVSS VL: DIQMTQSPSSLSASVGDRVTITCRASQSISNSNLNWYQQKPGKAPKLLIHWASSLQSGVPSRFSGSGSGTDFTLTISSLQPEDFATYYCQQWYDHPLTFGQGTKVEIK	0.019

Attention now shifts to the item below.
Supply Kd value. Item: IFWM3370 (antibody, IgG1, V domains shown, mAb; IgG1/kappa said of the parent and of selected mAbs; also called IFWB3105) VH: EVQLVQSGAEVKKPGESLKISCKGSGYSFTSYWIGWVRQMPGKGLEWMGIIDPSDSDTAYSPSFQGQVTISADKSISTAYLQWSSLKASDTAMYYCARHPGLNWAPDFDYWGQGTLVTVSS VL: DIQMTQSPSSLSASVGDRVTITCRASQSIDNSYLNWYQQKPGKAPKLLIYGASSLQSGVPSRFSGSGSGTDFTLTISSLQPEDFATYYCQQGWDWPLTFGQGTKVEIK
0.039
